Biological target: BACE1 (Homo sapiens (Human))
Assay: Cellular Aβ-lowering assay
Details: HEK293 cells stably expressing human APP wt (APP695); Aβ40 in supernatant by ELISA after 18-20 hrs
MEASURED ATTRIBUTE: IC50 (nM)
Answer with a number only, understood to be in nM.

Below are worked cases with known answers.
1) C[C@]1(c2cc(NC(=O)c3ccc(C#CC4CC4)cn3)ccc2F)N=C(N)OC[C@@H]1F [Example 14]; 4
2) C[C@]1(c2cc(NC(=O)c3ncc(C(F)(F)F)cc3Cl)ccc2F)N=C(N)OC[C@@H]1F [Example 9]; 2
3) C[C@]1(c2cc(NC(=O)c3ncc(C#N)cc3Cl)ccc2F)N=C(N)OC[C@H]1F [Example 35]; 82

Looking for the measured IC50 of C[C@]1(c2cc(NC(=O)c3cnc(OCF)cn3)ccc2F)N=C(N)OC[C@@H]1F [Example 10] , can you help?
24

* * *

In this section we review reported pIC50 values for a set of compounds.
Target: UniProtKB Q6IE75
Test: Assay for BACE inhibition by measuring cellular TMEM27 cleavage
Conditions: INS-TMEM27 (INS1e rat cell line, inducible hTMEM27); shed TMEM27 by ELISA
// pIC50: -log10(molar conc.)

Look up pIC50 for this compound: "C[C@]1(c2cc(NC(=O)c3cnc(Cl)s3)ccc2F)N=C(N)OC[C@@H]1F"
5.85

Query: pIC50; subject: "C[C@]1(c2cc(NC(=O)c3ccc(C4CC4)cn3)ccc2F)N=C(N)OC[C@@H]1F"
6.91

Report pIC50 for "C[C@]1(c2cc(NC(=O)c3ncc(Cl)cc3Cl)ccc2F)N=C(N)OC[C@@H]1F" please.
8.10

* * *

Target: BACE1 (Homo sapiens (Human))
Assay: Cellular Aβ-lowering assay
Type: cell-based
Details: HEK293 cells stably expressing human APP wt (APP695); Aβ40 in supernatant by ELISA after 18-20 hrs
MEASURED ATTRIBUTE: IC50

1) CC#CCOc1cnc(C(=O)Nc2ccc(F)c([C@@]3(C)N=C(N)OC[C@]3(C)F)c2)cn1; 0.1 nM
2) C[C@]1(c2cc(NC(=O)c3ncc(C(F)(F)F)cc3F)ccc2F)N=C(N)OC[C@@H]1F; 4 nM
3) C[C@]1(c2cc(NC(=O)c3ccc(Cl)cn3)ccc2F)N=C(N)OC[C@H]1F; 42 nM

Which measured IC50 belongs to "C[C@]1(c2cc(NC(=O)c3ncc(C(F)(F)F)cc3Cl)ccc2F)N=C(N)OC[C@H]1F" , tested on BACE1 (Homo sapiens (Human))?
140 nM

* * *

Target: BACE1 (Homo sapiens (Human), UniProt P56817)
Sequence (P56817 46-501): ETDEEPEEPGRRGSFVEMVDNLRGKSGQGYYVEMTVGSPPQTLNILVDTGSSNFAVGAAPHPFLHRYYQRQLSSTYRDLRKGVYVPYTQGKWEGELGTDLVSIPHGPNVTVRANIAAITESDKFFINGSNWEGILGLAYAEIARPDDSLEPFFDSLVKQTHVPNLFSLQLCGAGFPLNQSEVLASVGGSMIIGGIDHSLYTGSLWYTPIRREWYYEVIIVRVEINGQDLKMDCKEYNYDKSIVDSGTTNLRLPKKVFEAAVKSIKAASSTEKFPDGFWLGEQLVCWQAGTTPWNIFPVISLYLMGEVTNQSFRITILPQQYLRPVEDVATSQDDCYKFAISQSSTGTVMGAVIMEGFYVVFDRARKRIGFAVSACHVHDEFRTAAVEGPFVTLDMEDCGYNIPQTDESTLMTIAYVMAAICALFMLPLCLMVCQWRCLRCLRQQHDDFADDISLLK
Experiment: Cellular Aβ-lowering assay
Settings: HEK293 cells stably expressing human APP wt (APP695); Aβ40 in supernatant by ELISA after 18-20 hrs
Experimental: Cellular Aβ-Lowering Assay: Human HEK293 cells which are stably transfected with a vector expressing a cDNA of the human APP wt gene (APP695) were used to assess the potency of the compounds in a cellular assay. […] After stopping the reaction with one volume […] the reaction was measured in an ELISA reader at 450 nm wavelength. The concentrations of Aβ in the culture supernatants were calculated from a standard curve obtained with known amounts of pure Aβ peptide.
MEASURED ATTRIBUTE: IC50 (nM)
Report the value in nM with no unit label.

Before answering, review these 2 worked examples.
1. C[C@]1(c2cc(NC(=O)c3ncc(C#N)cc3Cl)ccc2F)N=C(N)OC[C@@H]1F; 2
2. C[C@]1(F)COC(N)=N[C@]1(C)c1cc(NC(=O)c2ncc(Cl)cc2Cl)ccc1F; 2

So what IC50 did "C[C@]1(c2cc(NC(=O)c3cnc(OCC(F)F)cn3)ccc2F)N=C(N)OC[C@@H]1F" get with BACE1 (Homo sapiens (Human), UniProt P56817)?
8

Kindly state the measured IC50 obtained for "C[C@]1(c2cc(NC(=O)c3ccc(C#N)cn3)ccc2F)N=C(N)OC[C@@H]1OCC(F)(F)F" with BACE1 (Homo sapiens (Human), UniProt P56817).
1

Any idea what IC50 came out for "C[C@]1(c2cc(NC(=O)c3cnc(Cl)s3)ccc2F)N=C(N)OC[C@@H]1F" on BACE1 (Homo sapiens (Human), UniProt P56817)?
81

So what IC50 did "C[C@]1(F)COC(N)=N[C@]1(C)c1cc(NC(=O)c2nn(CC(F)F)cc2Cl)ccc1F" get with BACE1 (Homo sapiens (Human), UniProt P56817)?
183

Give BACE1 (Homo sapiens (Human), UniProt P56817) IC50 for "C[C@]1(c2cc(NC(=O)c3ccc(OCC(F)(F)F)cn3)ccc2F)N=C(N)OC[C@@H]1OCC(F)(F)F"
21

Param readout = IC50; param system = BACE1 (Homo sapiens (Human), UniProt P56817); param query = "C[C@]1(F)COC(N)=N[C@]1(C)c1cc(NC(=O)c2ncccc2OCC(F)(F)F)ccc1F" ; response: value
22

Field: IC50 (BACE1 (Homo sapiens (Human), UniProt P56817)). Entry: "C[C@]1(c2cc(NC(=O)c3ccc(F)cn3)ccc2F)N=C(N)OC[C@@H]1F"
10

Please provide the recorded IC50 for "C[C@]1(c2cc(NC(=O)c3ccc(OCF)cn3)ccc2F)N=C(N)OC[C@@H]1F" , tested on BACE1 (Homo sapiens (Human), UniProt P56817).
1

* * *

Molecular target: BACE2 (Rattus norvegicus (Rat))
Sequence (Q6IE75 63-514): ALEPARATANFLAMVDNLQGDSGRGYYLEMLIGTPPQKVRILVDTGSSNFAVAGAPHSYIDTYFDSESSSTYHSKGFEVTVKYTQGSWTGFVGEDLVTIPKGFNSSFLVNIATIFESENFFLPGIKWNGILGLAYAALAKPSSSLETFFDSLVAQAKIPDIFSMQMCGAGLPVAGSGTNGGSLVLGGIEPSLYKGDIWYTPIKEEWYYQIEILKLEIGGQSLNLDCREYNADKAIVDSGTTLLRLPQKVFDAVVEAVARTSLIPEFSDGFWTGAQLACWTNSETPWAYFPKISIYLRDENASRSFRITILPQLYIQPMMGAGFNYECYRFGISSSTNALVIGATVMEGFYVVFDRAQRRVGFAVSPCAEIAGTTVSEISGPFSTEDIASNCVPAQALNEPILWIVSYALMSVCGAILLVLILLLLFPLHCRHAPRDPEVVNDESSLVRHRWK
Experiment: Assay for BACE inhibition by measuring cellular TMEM27 cleavage
Type: cell-based
Conditions: INS-TMEM27 (INS1e rat cell line, inducible hTMEM27); shed TMEM27 by ELISA
Measured IC50 values are reported for all entries that follow.
Show the value, then the unit it is measured in.

1) Cc1cc(C(=O)Nc2ccc(F)c([C@@]3(C)N=C(N)OC[C@@H]3F)c2)c(C)o1 [Example 18]; 20 nM
2) C[C@]1(c2cc(NC(=O)c3cnc(C(F)F)cn3)ccc2F)N=C(N)OC[C@@H]1F [Example 15]; 23 nM
3) C[C@]1(c2cc(NC(=O)c3ncc(Cl)cc3Cl)ccc2F)N=C(N)OC[C@@H]1OCC(F)(F)F [Example 48]; 67 nM

Now examine the next entry.
Which IC50 value is on record for C[C@]1(c2cc(NC(=O)c3ncc(C(F)(F)F)cc3Cl)ccc2F)N=C(N)OC[C@H]1F [Example 36] ?
4030 nM

* * *

Target: BACE1 (Homo sapiens (Human))
Test: Cellular Aβ-lowering assay
Settings: HEK293 cells stably expressing human APP wt (APP695); Aβ40 in supernatant by ELISA after 18-20 hrs
MEASURED ATTRIBUTE: log10 IC50 (log10 of the value in nM)
Parameter value (number): base-10 log of IC50 in nM.

Past entries and their recorded results:
1) C[C@]1(F)COC(N)=N[C@]1(C)c1cc(NC(=O)c2nn(C(F)F)cc2Cl)ccc1F; 0.30
2) C[C@]1(F)COC(N)=N[C@]1(C)c1cc(NC(=O)c2ccc(F)cn2)ccc1F; 1.04
3) C[C@]1(c2cc(NC(=O)c3ccc(OCC(F)(F)C(F)F)cn3)ccc2F)N=C(N)OC[C@@H]1F; 1.23
4) Cc1cc(C(=O)Nc2ccc(F)c([C@@]3(C)N=C(N)OC[C@@H]3F)c2)c(C)o1; 0.90
5) C[C@]1(c2cc(NC(=O)c3n[nH]cc3Cl)ccc2F)N=C(N)OC[C@@H]1F; 2.11

Quick check: log10 IC50 of "C[C@]1(c2cc(NC(=O)c3ccc(OCC(F)(F)F)cn3)ccc2F)N=C(N)OC[C@@H]1F" ?
0.90

Given "C[C@]1(c2cc(NC(=O)c3cnc(OCC4CC4)cn3)ccc2F)N=C(N)OC[C@@H]1F" , state its recorded log10 IC50.
0.70

Given the compound "C[C@]1(c2cc(NC(=O)c3cnc(C(F)F)cn3)ccc2F)N=C(N)OC[C@@H]1F" , what is its reported log10 IC50?
0.70

* * *

Molecular target: BACE1 (Homo sapiens (Human))
Test: Cellular Aβ-lowering assay
Settings: HEK293 cells stably expressing human APP wt (APP695); Aβ40 in supernatant by ELISA after 18-20 hrs
Could you mark each record true (1) if its IC50 falls strictly under 3 nM, and false (0) if it equals or exceeds it?

Example cases with answers are listed next.
1) C[C@]1(c2cc(NC(=O)c3ccc(OCC(F)(F)C(F)(F)F)cn3)ccc2F)N=C(N)OC[C@@H]1F; false (0)
2) C[C@]1(c2cc(NC(=O)C3(C#N)CC3)ccc2F)N=C(N)OC[C@@H]1F; false (0)
3) C[C@]1(c2cc(NC(=O)c3ncc(Cl)cc3Cl)ccc2F)N=C(N)OC[C@@H]1F; true (1)
4) C[C@]1(c2cc(NC(=O)c3ncc(Cl)cc3F)ccc2F)N=C(N)OC[C@@H]1F; true (1)
5) C[C@]1(c2cc(NC(=O)C3CC3)ccc2F)N=C(N)OC[C@@H]1F; false (0)

Continue with the compound presented below.
# strict comparison: is reported IC50 < 3 nM? input = "C[C@]1(c2cc(NC(=O)c3ccc(Cl)cn3)ccc2F)N=C(N)OC[C@@H]1OCC(F)(F)F"
true (1)
